test system: Mus musculus; experiment: Selectivity ratio of ED50 for antinociceptive activity in i.c.v dosed LPS-induced ICR-CD1 mouse thermal hyperalgesia model to ED50 for i.t dosed LPS-induced ICR-CD1 mouse thermal hyperalgesia model; type: functional

{"molecule": "CN1CC[C@]23c4c5ccc(O)c4O[C@H]2[C@@H](O)C=C[C@H]3[C@H]1C5 [MORPHINE]", "studySystem": "Mus musculus", "Ratio ED50": 8}
{"molecule": "Cc1ccc(N(CCCN2CCC(Cc3ccc(C(N)=O)cc3)CC2)C(=O)C2CCN(C(=O)COCC(=O)NCCCCCCCNC(=O)COCC(=O)N[C@H]3CC[C@@]4(O)[C@H]5Cc6ccc(O)c7c6[C@@]4(CCN5C)[C@H]3O7)CC2)cc1Cl", "studySystem": "Mus musculus", "Ratio ED50": 60.68}
{"molecule": "Cc1ccc(N(CCCN2CCC(Cc3ccc(C(N)=O)cc3)CC2)C(=O)C2CCN(C(=O)COCC(=O)NCCNC(=O)COCC(=O)N[C@H]3CC[C@@]4(O)[C@H]5Cc6ccc(O)c7c6[C@@]4(CCN5C)[C@H]3O7)CC2)cc1Cl", "studySystem": "Mus musculus", "Ratio ED50": 5.32}
{"molecule": "CNC(=O)COCC(=O)NCCCCCCCNC(=O)COCC(=O)N[C@H]1CC[C@@]2(O)[C@H]3Cc4ccc(O)c5c4[C@@]2(CCN3C)[C@H]1O5", "studySystem": "Mus musculus", "Ratio ED50": 7.93}
{"molecule": "Cc1ccc(N(CCCN2CCC(Cc3ccc(C(N)=O)cc3)CC2)C(=O)C2CCN(C(=O)COCC(=O)NCCCCCNC(=O)COCC(=O)N[C@H]3CC[C@@]4(O)[C@H]5Cc6ccc(O)c7c6[C@@]4(CCN5C)[C@H]3O7)CC2)cc1Cl", "studySystem": "Mus musculus", "Ratio ED50": 6.38}
{"molecule": "CC(=O)N1CCC(C(=O)N(CCCN2CCC(Cc3ccc(C(N)=O)cc3)CC2)c2ccc(C)c(Cl)c2)CC1", "studySystem": "Mus musculus", "Ratio ED50": 6.48}
{"molecule": "Cc1ccc(N(CCCN2CCC(Cc3ccc(C(N)=O)cc3)CC2)C(=O)C2CCN(C(=O)COCC(=O)NCCCCCCCCCNC(=O)COCC(=O)N[C@H]3CC[C@@]4(O)[C@H]5Cc6ccc(O)c7c6[C@@]4(CCN5C)[C@H]3O7)CC2)cc1Cl", "studySystem": "Mus musculus", "Ratio ED50": 118.62}

* * *

tested on: Mus musculus; assay: Toxicity in i.t dosed ICR-CD1 mouse at ED50 after 24 hrs; assay type: organism-based; settings: in vivo, icv_or_intrathecal
observable: Activity

{"structureNotation": "Cc1ccc(N(CCCN2CCC(Cc3ccc(C(N)=O)cc3)CC2)C(=O)C2CCN(C(=O)COCC(=O)NCCCCCCCCCCCCNC(=O)COCC(=O)N[C@H]3CC[C@@]4(O)[C@H]5Cc6ccc(O)c7c6[C@@]4(CCN5C)[C@H]3O7)CC2)cc1Cl", "reading": "Toxic"}
{"structureNotation": "Cc1ccc(N(CCCN2CCC(Cc3ccc(C(N)=O)cc3)CC2)C(=O)C2CCN(C(=O)COCC(=O)NCCCCCNC(=O)COCC(=O)N[C@H]3CC[C@@]4(O)[C@H]5Cc6ccc(O)c7c6[C@@]4(CCN5C)[C@H]3O7)CC2)cc1Cl", "reading": "Toxic"}
{"structureNotation": "CNC(=O)COCC(=O)NCCCCCCCNC(=O)COCC(=O)N[C@H]1CC[C@@]2(O)[C@H]3Cc4ccc(O)c5c4[C@@]2(CCN3C)[C@H]1O5", "reading": "Toxic"}
